Molecular target: T1, Fzf1 (Saccharomyces cerevisiae, UniProt P32805 1-299)
T1 sequence: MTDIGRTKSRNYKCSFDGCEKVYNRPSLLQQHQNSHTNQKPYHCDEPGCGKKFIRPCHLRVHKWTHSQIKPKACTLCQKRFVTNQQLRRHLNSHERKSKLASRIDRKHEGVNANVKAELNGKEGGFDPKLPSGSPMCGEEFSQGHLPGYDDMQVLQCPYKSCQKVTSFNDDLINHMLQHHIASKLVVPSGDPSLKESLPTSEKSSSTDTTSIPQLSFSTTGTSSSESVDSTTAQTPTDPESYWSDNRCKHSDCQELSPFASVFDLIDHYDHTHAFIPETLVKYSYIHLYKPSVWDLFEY
Assay: EMSA; poly dI-dC, BSA; EMSA: 0.1 pmol dsDNA probe, 2 ng BSA, 0.5 ug poly dI-dC (added after incubation), EMSA binding buffer (composition, salt and pH not given), 20 min on ice, 6% native PAGE; protein 0-150 nM
Details: protein: recombinant; tags: GST fusion from pGEX-6p-1 (pGEX-FZF1); tag removal by PreScission described only for N117; blunt
pKd: −log10 of the molar value.
test readout: pKd

Input SSU1-CS2 (dsDNA) DNA 1: GAAAAAAAAATGATAGTTTGCAGGAAG DNA 2: CTTCCTGCAAACTATCATTTTTTTTTC . Output pKd: ~7.46
